Hello, the source for this data is the supplement of paper PMC11451515, in case you need it.

- Test system: P12-Ichikawa
- ASSAY_SUMMARY: cell viability relative to DMSO control; higher = less cytotoxic
- CONDITION_INFO: RPMI 5 mM glucose + 10% dialyzed FBS; 48 h; 0.00702 µM
PROPERTY_LABEL: cell viability (%)
# unit: % | format: bare number

Q: Entry under review: `CNc1nccc(-c2cccnc2Oc2cc(C(=O)Nc3cccc(C(F)(F)F)c3)ccc2C)n1` . Reported cell viability?
A: 104

Q: What about `C[C@@H]1[C@H](O)[C@@H](C)/C=C/C=C/C=C/C=C/C=C/C=C/C=C/[C@H](O[C@@H]2O[C@H](C)[C@@H](O)[C@H](N)[C@@H]2O)C[C@@H]2O[C@](O)(C[C@@H](O)C[C@@H](O)[C@H](O)CC[C@@H](O)C[C@@H](O)CC(=O)O[C@H]1C)C[C@H](O)[C@H]2C(=O)O` ?
A: 119

Q: Then this molecule: `C[C@]1(c2nc3c(C(N)=O)cccc3[nH]2)CCCN1`
A: 74.3

Q: What would you report for `C[C@@H]\1CC(=O)N\N=C1C2=CC=C(NN=C(C#N)C#N)C=C2` ?
A: 88.2

Q: Try this molecule too: `C[S+]([O-])(=O)C1=CC=C(C=C1)C/2=C(/C(=O)OC2)C3=CC=CC=C3`
A: 115

Q: Field entry: `COc1cc2ncnc(Nc3cc(Br)c(O)c(Br)c3)c2cc1OC`
A: 108

Q: And then `Cc1[nH]c2ccccc2c1CCNCc1ccc(/C=C/C(=O)NO)cc1` , what is it?
A: 117

Q: Repeat for the following molecule: `COc1ccc(-c2nc(N3CCOCC3)c3sc(CN(C)c4ncc(C(=O)NO)cn4)cc3n2)cn1`
A: 108

----------
- Tested on: SEM cells
- ASSAY_SUMMARY: cell viability relative to DMSO control; higher = less cytotoxic
- CONDITION_INFO: HPLM + 10% dialyzed FBS; 48 h; 0.569 µM
PROPERTY_LABEL: cell viability (%)
# output: bare number, implied unit %

Q: # lookup: cell viability of `CC(C)(C)c1[nH]cnc1/C=c1\[nH]c(=O)/c(=C/c2ccccc2)[nH]c1=O`
A: 24.3

Q: Do the same for `N=C(NCCCCCCNC(=N)NC(=N)Nc1ccc(Cl)cc1)NC(=N)Nc1ccc(Cl)cc1` please
A: 104

Q: Then `Nc1ncnc2c1c(-c1cnc3[nH]ccc3c1)nn2C1CCCC1` ?
A: 95.2

Q: Another molecule to check: `OC1=CC2=C(C(=C1)O)C(=O)\C=C(/O2)C3=CC=CC=C3`
A: 94.4

Q: Another molecule: `S=C1N\C=N/C2=C1[NH]C=N2`
A: 124

Q: Moving on to `N/C1=N/C(=O)C/2=C(NC[C@@H](CNC3=CC=C(C=C3)C(=O)N[C@@H](CCC([O-])=O)C([O-])=O)N2C=O)\N1`
A: 117

Q: Now the same for `CN1CCCN=C1/C=C/c1cccs1.O=C(O)c1cc2ccccc2c(Cc2c(O)c(C(=O)O)cc3ccccc23)c1O`
A: 118

Q: Moving on to COc1ccc(C2CNC(=O)C2)cc1OC1CCCC1 (stereo not given)
A: 107

Q: Subsequent entry: `CC(C)=CC[C@@H](O)C/1=C/C(=O)C2=C(O)C=CC(=C2C1=O)O`
A: 93.5

Q: Next: OC[C@H]1OCC(O1)[N@@]2C=CC(N)=NC2=O (stereo not given in full)
A: 107

----------
- Tested on: P12-Ichikawa
- ASSAY_SUMMARY: cell viability relative to DMSO control; higher = less cytotoxic
- CONDITION_INFO: RPMI 5 mM glucose + 10% FBS; 48 h; 0.0211 µM
PROPERTY_LABEL: cell viability (%)
# output: bare number, implied unit %

Q: Data request, read-out cell viability, for `CN1CCCN=C1/C=C/c1cccs1.O=C(O)c1cc2ccccc2c(Cc2c(O)c(C(=O)O)cc3ccccc23)c1O`
A: 122

Q: Entry `C\C1=C(\C=C(\C#N)C(=O)N1)C2=CC=NC=C2` please
A: 118

Q: Same thing, different molecule: `Cc1[nH]c2ccccc2c1CCNCc1ccc(/C=C/C(=O)NO)cc1`
A: 107

Q: // same read-out, input: `CC(C)C(=O)Oc1ccc(CO)cc1[C@H](CCN(C(C)C)C(C)C)c1ccccc1`
A: 83.4

Q: Then `CN1CCN(c2ccc([N+](=O)[O-])c3no[n+]([O-])c23)CC1` ?
A: 89

----------
- Test system: SEM cells
- ASSAY_SUMMARY: cell viability relative to DMSO control; higher = less cytotoxic
- CONDITION_INFO: HPLM + 10% dialyzed FBS; 48 h; 0.0211 µM
PROPERTY_LABEL: cell viability (%)
Answer with a number only, understood to be in %.

Q: Need cell viability of `O=C(Nc1c(Cl)cncc1Cl)c1ccc(OC(F)F)c(OCC2CC2)c1` , thanks.
A: 96.8

Q: Thanks! And `COC1=C2OC(=O)\C=C/C2=CC3=C1OC=C3` ?
A: 126

Q: Thanks! And `NC(=O)c1ccc(I)c([N+](=O)[O-])c1` ?
A: 126

Q: Request: `CCCCCC[C@H]1C(=O)O[C@H](C)[C@H](NC(=O)c2cccc(NC=O)c2O)C(=O)O[C@@H](C)[C@@H]1OC(=O)CC(C)C`
A: 113

Q: Try this molecule too: `CN1CCCN=C1/C=C/c1cccs1.O=C(O)c1cc2ccccc2c(Cc2c(O)c(C(=O)O)cc3ccccc23)c1O`
A: 128

Q: What do you get for `Cn1cnc2c1c(=O)[nH]c(=O)n2C` ?
A: 106

Q: Could you do the same for `COc1ccc(C(C)=O)c(O)c1` , please?
A: 95.1

Q: Record: OC[C@H]1OCC(O1)[N@@]2C=CC(N)=NC2=O (stereo partly drawn)
A: 106

----------
- System: P12-Ichikawa
- ASSAY_SUMMARY: cell viability relative to DMSO control; higher = less cytotoxic
- CONDITION_INFO: HPLM + 10% dialyzed FBS; 48 h; 0.00234 µM
PROPERTY_LABEL: cell viability (%)
Entry rule: numbers only, all in %.

Q: Given the entry `CSCC[C@@H](NC(=O)[C@@H](Cc1ccccc1)NC(=O)CNC(=O)CNC(=O)[C@@H](N)Cc1ccc(O)cc1)C(=O)O` , report its measured cell viability.
A: 96.7

Q: Try `C=C[C@H]1CN2CC[C@H]1C[C@H]2[C@H](O)c1ccnc2ccc(OC)cc12` next.
A: 98.6

Q: Then what about the compound `CN[C@@H]1[C@H](O)[C@H](NC)[C@H]2O[C@@]3(O)C(=O)C[C@@H](C)O[C@H]3O[C@@H]2[C@H]1O` ?
A: 117

Q: Ok, now C[N]1C=C(C2=C1C=CC=C2)\C3=C(\C(=O)NC3=O)C4=C5CC(CN)CC[N]5C6=C4C=CC=C6 (stereo not given)
A: 105

Q: How about this compound: `COc1ccc(C(C)=O)c(O)c1`
A: 106

Q: What do you have for `CNC[C@H](O)c1ccc(O)c(O)c1` ?
A: 101

Q: Another compound to check: `S=P(N1CC1)(N1CC1)N1CC1`
A: 106

Q: Please answer likewise for OC[C@H]1OCC(O1)[N@@]2C=CC(N)=NC2=O (stereo not given in full)
A: 118

Q: // next record CCC(C)(C)c1ccc(CC(C)CN2C[C@@H](C)O[C@@H](C)C2)cc1 (stereo not given in full)
A: 81.5

Q: Try the compound `Cc1[nH]c2ccccc2c1CCNCc1ccc(/C=C/C(=O)NO)cc1`
A: 106

Q: Request: `CN1CCCN=C1/C=C/c1cccs1.O=C(O)c1cc2ccccc2c(Cc2c(O)c(C(=O)O)cc3ccccc23)c1O`
A: 117

Q: Continue with `CC(C)(C)c1[nH]cnc1/C=c1\[nH]c(=O)/c(=C/c2ccccc2)[nH]c1=O`
A: 80

Q: And the next one, `O=C(Nc1ccc(F)c(C(F)(F)F)c1)Nc1nnc(-c2ccncc2)s1` ?
A: 121

Q: Same question, `Nc1ncnc2c1c(-c1cnc3[nH]ccc3c1)nn2C1CCCC1` this time
A: 121

Q: Try the compound `COc1ccc(-c2ccc3c(N4CCOC[C@@H]4C)nc(N4CCOC[C@@H]4C)nc3n2)cc1CO`
A: 82.1

----------
- System: P12-Ichikawa
- ASSAY_SUMMARY: cell viability relative to DMSO control; higher = less cytotoxic
- CONDITION_INFO: RPMI 5 mM glucose + 10% FBS; 48 h; 1.71 µM
PROPERTY_LABEL: cell viability
Put your answer as a value accompanied by its unit after it.

Q: Form field: cell viability recorded for CNC1CCC(N(Cc2cccc(-c3ccncc3)c2)C(=O)c2sc3c(F)ccc(F)c3c2Cl)CC1 (centres undefined) with P12-Ichikawa (enter value)
A: 100%

Q: # repeat for `CN1CCCN=C1/C=C/c1cccs1.O=C(O)c1cc2ccccc2c(Cc2c(O)c(C(=O)O)cc3ccccc23)c1O`
A: 114%

Q: Try the compound `Cc1c(NC(=O)OC[C@@H]2COCCN2)cn2ncnc(Nc3ccc4c(cnn4Cc4cccc(F)c4)c3)c12`
A: 92.2%

Q: Repeat for the following compound: CCC(C)(Oc1ccc(C2(c3ccc(OC(C)(CC)C(=O)O)cc3)CCCCC2)cc1)C(=O)O (centres undefined)
A: 101%

Q: Entry `C=C(C)[C@H]1Cc2c(ccc3c2O[C@@H]2COc4cc(OC)c(OC)cc4[C@@H]2C3=O)O1` please
A: 60.3%

Q: Follow-up entry: `Cn1c(CNc2ccc(C(=N)N)cc2)nc2cc(C(=O)N(CCC(=O)O)c3ccccn3)ccc21`
A: 128%

Q: Could you do the same for `O=C(NC[C@H](O)CO)c1ccncc1Nc1ccc(I)cc1F` , please?
A: 91.4%

Q: Would you mind doing `Cn1cnc2c1c(=O)[nH]c(=O)n2C` as well?
A: 98.5%

Q: How about `CCN1\C=C(\C(O)=O)C(=O)C2=CC=C(C)N=C12` ?
A: 90.6%
